Test system: MYO3B
Conditions: concentration: 1 μM, replicates: in singlicate; n = 1;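 further: KINOMEscan kinase panel screen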
Measured %Inh by item
Unit % implied. Number only.

The examples below pair each entry with its known result.
molecule | measuredTarget | %Inh [%]
Cc1c(Cn2c(C)nn3c(=O)cc(N4CCO[C@H](C)C4)nc23)cccc1C(F)(F)F | MYO3B | 0
O=C(Nc1n[nH]c2nc(-c3ccccc3)c(Br)cc12)C1CC1 | MYO3B | 13
CCS(=O)(=O)c1ccc(OC)c(Nc2ncc(-c3ccc(F)cc3)o2)c1.Cl | MYO3B | 0
Cc1ccc(Oc2ccc(Nc3ncnc4cc[nH]c34)cc2C)cn1 | MYO3B | 28
O=C(Nc1n[nH]c2nc(-c3ccccc3)c(Cl)cc12)C1CC1 | MYO3B | 12

Entry OCCCNc1nccc(-c2c(-c3cccc(C(F)(F)F)c3)nn3cc(C(F)(F)F)ccc23)n1 : reported %Inh = ?
0

CCC(=O)c1c(-c2ccccc2)c2cc(Cl)ccc2c(=O)n1Cc1cc(S(C)(=O)=O)n(CC(N)=O)n1 , same question.
0

COC(=O)c1c(-c2ccccc2)c2cc(Br)ccc2c(=O)n1Cc1ccc(NC(=O)CCC(=O)O)cc1 , same question.
0

COc1ccc(-n2cnc3c(N)ncnc32)cc1 , same question.
0

O=C(Nc1n[nH]c2cc(-c3ccccc3F)ccc12)C1CC1 , same question.
0

Nc1nc(-c2ccccc2F)c(-c2ccnc3ccccc23)s1 , same question.
0

COc1ccc(-c2cc3c(C)nc(N)nc3n([C@H]3CC[C@H](OCCO)CC3)c2=O)cn1 , same question.
25

O=C(NCCNc1ccnc(Nc2ccc(F)cc2)n1)Nc1ccc2c(c1)OCO2 , same question.
0

COc1cc2ncn(-c3cc(OCc4ccncc4Br)c(C(N)=O)s3)c2cc1OC , same question.
9

Cc1nnc(-c2ccc3ncn(-c4ccc(S(C)=O)cc4)c3c2)o1 (stereo not shown) , same question.
48

Nc1nccc2scc(-c3ccc4c(c3)CCN4C(=O)Cc3ccccc3)c12 , same question.
5

COC(=O)c1c(-c2ccccc2)c2cc(Br)ccc2c(=O)n1Cc1ccc(S(C)(=O)=O)cc1 , same question.
0

COc1cccc(-n2cnc3c(N)ncnc32)c1 , same question.
20

CCCNC(=O)Nc1ccc(Oc2ncnc3ccn(C)c23)cc1 , same question.
40

----------
Measured %Inh by item
Test system: ERBB2
Settings: concentration: 1 μM, replicates: in singlicate; n = 1
Unit % implied. Number only.

compound | unitsLabel | recordedResult
COc1cc2ncn(-c3cc(OCCCc4ccccc4)c(C(N)=O)s3)c2cc1OC | % | 12
COc1cccc(-n2cnc3c(N)ncnc32)c1 | % | 31
Cl.c1ccc(Cn2cnc3cc(Nc4ncnc5ccccc45)ccc32)cc1 | % | 38
CN1C(=O)C(Nc2cc(Cl)c(O)c(Cl)c2)=C(c2ccc(Cl)cc2)C1=O | % | 24
Nc1ncnc2c1ncn2-c1cccc2ccccc12 | % | 10

Entry CN(C)c1cc(-c2ccc3c(N)n[nH]c3c2)nc(N)n1 : reported %Inh = ?
25

COc1cc(Nc2nccc(N3CCC(NC(=O)C(C)c4ccc(Cl)cc4)C3)n2)cc(OC)c1OC (stereo not shown) , same question.
61

Nc1nc(N)c2nc(-c3ccccc3)[nH]c2n1 , same question.
22

Cc1nnc(-c2ccc3ncn(-c4ccc(S(C)=O)cc4)c3c2)o1 (stereo not shown) , same question.
29

Nc1n[nH]c2nnc(-c3ccccc3)c(-c3ccccc3)c12 , same question.
27

COc1ccc(Nc2nccc(N3CCC(NS(=O)(=O)c4ccc(NC(C)=O)cc4)C3)n2)cc1 (stereo not shown) , same question.
20

----------
Tested on: ADCK4
Settings: concentration: 1 μM, replicates: in singlicate; n = 1
propertyLabel: %Inh (%)
Unit % implied. Number only.

compound | recordedResult
COC(=O)c1c(-c2ccccc2)c2cc(Br)ccc2c(=O)n1Cc1ccc(S(C)(=O)=O)cc1 | 8
CCc1nc(-c2cccc(C)c2)c(-c2ccncc2)s1 | 0
Cc1ccccc1COc1cc(-n2cnc3cc(Cl)ccc32)sc1C(N)=O [GW813349] | 0
CCC(=O)c1c(-c2ccccc2)c2cc(Cl)ccc2c(=O)n1Cc1ccc(C(=O)O)cc1 | 0
CCCC(=O)Nc1n[nH]c2ncc(-c3cccc4ccccc34)cc12 [SB-642057] | 5

Entry COc1ccc(CNC(=O)NC2CCN(c3ccnc(Nc4ccc(F)cc4)n3)C2)cc1 (stereo not drawn) [GSK1379706] : reported %Inh = ?
48

----------
Tested on: TAOK2
Details: concentration: 1 μM, replicates: in singlicate; n = 1
propertyLabel: %Inh (%)
Unit % implied. Number only.

molecule | measuredTarget | %Inh (%)
CCC(=O)c1c(-c2ccccc2)c2cc(Cl)ccc2c(=O)n1Cc1cc(C(=O)NC2CC2)n(C)n1 | TAOK2 | 0

Entry COc1ccc(-c2coc3ccc(-c4nnc(SCc5cccc(C#N)c5)o4)cc23)cc1 : reported %Inh = ?
10

O=c1cc(N2CCOCC2)nc2n(Cc3ccc(F)c(Cl)c3)ccn12 , same question.
0

O=C1NC(=O)C(c2ccccc2)=C1Nc1cccc(O)c1 , same question.
22

CCC(=O)c1c(-c2ccccc2)c2cc(Cl)ccc2c(=O)n1Cc1ccc(C(=O)O)cc1 , same question.
0

O=C(Nc1n[nH]c2cc(-c3ccccc3F)ccc12)C1CC1 , same question.
19

Cc1c(Cn2c(C)nn3c(=O)cc(N4CCO[C@H](C)C4)nc23)cccc1C(F)(F)F , same question.
9

COC(=O)c1c(-c2ccccc2)c2cc(Br)ccc2c(=O)n1Cc1ccc(NC(=O)CCC(=O)O)cc1 , same question.
0

Cc1nnc(-c2ccc(C)c(-c3ccc(C(=O)O)cc3)c2)o1 , same question.
0

COc1ccc(-c2cc3c(C)nc(N)nc3n([C@H]3CC[C@H](OCCO)CC3)c2=O)cn1 , same question.
0

CCS(=O)c1ccc(-c2coc3ccc(-c4nnc(C)o4)cc23)cc1 (stereo not drawn) , same question.
0

----------
Tested on: MUSK
Details: concentration: 1 μM, replicates: in singlicate; n = 1
Measured %Inh by item
Please report the result as a number followed by the unit.

molecule | recordedResult
Cc1cccc(-c2cc(-c3c[nH]nc3-c3ccccn3)ccn2)c1 [GW679395] | 0%
OCCCNc1nccc(-c2c(-c3cccc(C(F)(F)F)c3)nn3cc(C(F)(F)F)ccc23)n1 [GW630813] | 0%
CCC(=O)c1c(-c2ccccc2)c2cc(Cl)ccc2c(=O)n1Cc1cc(S(C)(=O)=O)n(CC(N)=O)n1 | 0%
COc1cccc(C2=C(Nc3cccc(C(=O)O)c3)C(=O)NC2=O)c1 [SB-390770] | 15%

API: the following record is the query input.
Entry O=c1cc(N2CCOCC2)nc2n(Cc3ccc(F)c(Cl)c3)ccn12 [GSK2297099] : reported %Inh = ?
5%

----------
Measured %Inh by item
Tested on: PRKR
Construct: gene EIF2AK2
Conditions: concentration: 1 μM, replicates: in singlicate; n = 1
Unit % implied. Number only.

compound | %Inh [%]
Fc1cccc(CSc2nnc(-c3ccc4c(c3)CCO4)o2)c1 | 0
Cc1nc(N(C)[C@H]2CN(C(=O)CC#N)CC[C@H]2C)c2cc[nH]c2n1 | 5
O=C(Nc1n[nH]c2nc(-c3ccccc3)c(Cl)cc12)C1CC1 [SB-734909] | 0
Cc1ccccc1COc1cc(-n2cnc3cc(Cl)ccc32)sc1C(N)=O [GW813349] | 0
Cc1ccc(-c2ccc3c(ccc4sc5c(c43)NC[C@@H](C)N=C5N(C)C)n2)cn1 | 0
Nc1ncnc2c1ncn2-c1ccc(Cl)cc1 [AH2635] | 0
Cc1cc(Nc2nc(-c3cccc(C)n3)nc3ccccc23)ccn1 [GW872411] | 0
CN(C)c1cc(-c2ccc3c(N)n[nH]c3c2)nc(N)n1 [GSK2219329] | 5
CN1C(=O)C(Nc2ccccc2)=C(c2ccccc2)C1=O [SB-300079] | 76
COc1cccc(C2=C(N(C)c3ccccc3)C(=O)NC2=O)c1 [SB-334865] | 0

API: the following record is the query input.
Entry COC(=O)c1c(-c2ccccc2)c2cc(Br)ccc2c(=O)n1Cc1ccc(NC(=O)CCC(=O)O)cc1 : reported %Inh = ?
0

----------
Test system: BTK
Conditions: concentration: 1 μM, replicates: in singlicate; n = 1
Measured %Inh by item
Please report the result as a number followed by the unit.

The examples below pair each entry with its known result.
compound | %Inh
C[C@@H]1CC[C@H](C(=O)NC2CCCCC2)CN1c1cc(-c2ccc3c(N)n[nH]c3c2)nc(N)n1 | 0%
CCCC(=O)Nc1n[nH]c2ncc(-c3cccc4ccccc34)cc12 | 0%
Nc1n[nH]c2nnc(-c3ccccc3)c(-c3ccccc3)c12 | 2%

Quick check: %Inh on BTK, item COc1cc2ncn(-c3cc(OCc4ccncc4Br)c(C(N)=O)s3)c2cc1OC ?
0%

O=C(Nc1ccc2c(c1)OCO2)NC1CCN(c2ccnc(NCc3ccc(F)cc3)n2)CC1 , same question.
0%

Cc1cc(Nc2nc(-c3cccc(C)n3)nc3ccccc23)ccn1 , same question.
0%

Cc1ccc(-c2ccc3c(ccc4sc5c(c43)NC[C@@H](C)N=C5N(C)C)n2)cn1 , same question.
0%

O=C(Nc1n[nH]c2nc(-c3ccccc3)c(Br)cc12)C1CC1 , same question.
0%

COc1ccc(CNC(=O)NC2CCN(c3ccnc(Nc4ccc(F)cc4)n3)C2)cc1 (stereo not drawn) , same question.
18%

These entries and their values trace back to paper PMC5540273.
